Would you mind telling me the reported % at 1 μM hA2B (percentage displacement of specific binding) of each entry?
Target: hA2BAR (Homo sapiens)
Construct: host or cells: HEK-293 (HEK-293-A2B) cell membranes
Sequence (P29275 whole entry): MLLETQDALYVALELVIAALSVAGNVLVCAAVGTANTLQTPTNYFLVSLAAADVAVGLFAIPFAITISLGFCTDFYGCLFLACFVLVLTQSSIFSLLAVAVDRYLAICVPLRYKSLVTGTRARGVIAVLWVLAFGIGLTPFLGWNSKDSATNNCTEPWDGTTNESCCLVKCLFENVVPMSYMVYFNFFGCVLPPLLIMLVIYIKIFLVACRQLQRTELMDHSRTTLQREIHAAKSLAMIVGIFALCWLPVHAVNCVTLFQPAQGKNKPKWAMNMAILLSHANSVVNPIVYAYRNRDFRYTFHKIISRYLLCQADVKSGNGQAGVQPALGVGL
Experiment: Radioligand binding competition, [3H]DPCPX, membranes from HEK-293-A2B cells
Conditions: 1 μM, [3H]DPCPX, human HEK-293 cells, n = 2
Experimental: All ligands reported in Tables 1–5 were obtained and tested as racemic mixtures. The whole set was evaluated in silico with a combination of a Rdkit[37] […] A brief description is given below. […] Non-specific binding was determined in the presence of 10 μM R-PIA. […] Non-specific binding was determined in the presence of 100 μM R-PIA. […] After the incubation time, membranes were washed and filtered and radioactivity was detected in a MicroBeta TriLux reader (PerkinElmer).
Hi! Could you send only the number? It should be in %, unit omitted.

Query string: Test system hA2BAR (Homo sapiens); read-out % at 1 μM hA2B (percentage displacement of specific binding); what value for CCOC(=O)C1=C(C)Nc2nc3cc(Cl)ccc3n2C1c1cccs1 (stereo not shown) [16m] ?
Result string: 41

Query string: Same read-out for CC1=C(C(=O)OC(C)C)[C@H](c2ccco2)n2c(nc3cc(Cl)ccc32)N1 [(R)-16j] ?
Result string: 51

Query string: What would you report for CC1=C(C(=O)OC(C)C)[C@H](c2ccco2)n2c(nc3cc(F)ccc32)N1 [(R)-16b] ?
Result string: 41

Query string: What would you report for CCOC(=O)C1=C(C)Nc2nc3cc(Br)ccc3n2C1c1cccs1 (stereo not shown) [16u] ?
Result string: 55

Query string: What about this molecule? CCOC(=O)C1=C(C)Nc2nc3cc(Cl)c(Cl)cc3n2C1c1cccs1 (stereo not shown) [14m]
Result string: 9

Query string: Also CC1=C(C(=O)OC(C)C)C(c2cccs2)n2c(nc3ccc(Cl)cc32)N1 (stereo not shown) [15n] , if possible.
Result string: 7

Query string: CC1=C(C(=O)OC(C)C)C(c2ccoc2)n2c(nc3ccc(Cl)cc32)N1 (stereo not shown) [15l] ?
Result string: 50

Query string: And for CCOC(=O)C1=C(C)Nc2nc3cc(Br)c(Br)cc3n2C1c1ccco1 (stereo not shown) [14q] ?
Result string: 37

Query string: Same again, this time with CC1=C(C(=O)OC(C)C)C(c2ccsc2)n2c(nc3ccc(Br)cc32)N1 (stereo not shown) [15x]
Result string: 10

Query string: Now consider CCOC(=O)C1=C(C)Nc2nc3cc(Cl)c(Cl)cc3n2C1c1ccco1 (stereo not shown) [14i] and answer again.
Result string: 9

Query string: Try this molecule too: CC1=C(C(=O)OC(C)C)C(c2ccco2)n2c(nc3ccccc32)N1 (stereo not shown) [II, reference compound]
Result string: 17

Query string: Okay, and CCOC(=O)C1=C(C)Nc2nc3ccc(Cl)cc3n2C1c1cccs1 (stereo not shown) [15m] ?
Result string: 1

Query string: Same for CC1=C(C(=O)OC(C)C)C(c2cccs2)n2c(nc3ccc(F)cc32)N1 (stereo not shown) [15f]
Result string: 23

Query string: Another: CCOC(=O)C1=C(C)Nc2nc3cc(F)c(F)cc3n2C1c1cccs1 (stereo not shown) [14e]
Result string: 25

Query string: Try this molecule next: CC1=C(C(=O)OC(C)C)C(c2ccsc2)n2c(nc3ccc(Cl)cc32)N1 (stereo not shown) [15p]
Result string: 48

Query string: // next record CC1=C(C(=O)OC(C)C)C(c2cccs2)n2c(nc3cc(Cl)c(Cl)cc32)N1 (stereo not shown) [14n]
Result string: 1

Query string: Now consider CCOC(=O)C1=C(C)Nc2nc3ccc(F)cc3n2C1c1cccs1 (stereo not shown) [15e] .
Result string: 37

Query string: Now consider CC1=C(C(=O)OC(C)C)C(c2ccoc2)n2c(nc3cc(Cl)c(Cl)cc32)N1 (stereo not shown) [14l] and answer again.
Result string: 36

Query string: What do you get for CCOC(=O)C1=C(C)Nc2nc3cc(Br)c(Br)cc3n2C1c1ccoc1 (stereo not shown) [14s] ?
Result string: 7
